Can you tell me GI50 for the items I'm about to list?
system: OVCAR-8 ovarian; experiment: NCI tumour cell line growth inhibition, 48 h

Specify GI50 for `COc1cccc(Sc2ccc([N+](=O)[O-])c3no[n+]([O-])c23)c1` and stop.
6.22 µM

Specify GI50 for `COc1ccc(OC)c(NC(=O)c2cccc(NC3=C(Cl)C(=O)N(Cc4ccccc4)C3=O)c2)c1` and stop.
> 76.8 µM

Specify GI50 for `COc1ccc(C(C#N)=C2C=CC(=NO)C=C2)cc1` and stop.
10.2 µM

Specify GI50 for `C=C(C)[C@@H]1C/C=C(/CO)CC[C@H]2O[C@]2(C)CC/C=C(\C)CC1` and stop.
24 µM

Specify GI50 for `C=CCNc1nc(O)c(/C=C2\C=Nc3ncccc32)s1` and stop.
3.41 µM

Specify GI50 for `O=C(Nc1ccc2ncnc(Nc3ccc(Oc4cccc(F)c4)c(Cl)c3)c2c1)c1ccc(CN2CCOCC2)cc1` and stop.
2.34 µM

Specify GI50 for `Cc1cc(C(=O)Nc2cc(Oc3ccc4nc(NC(=O)C5CC5)cn4n3)ccc2C)n(C)n1` and stop.
> 10 µM
